Values compiled from patent US7786258B2.

system: histone; assay: Inhibition of histone binding: PAP immune complexes on histone-coated plates (Example 3); conditions: rabbit PAP pre-incubated with peptides or histone one hour; (+) control buffer only 1.268
Positions of bridges follow the written chain, without caps; N, C: chain ends. No end group written: not given here.
Some sequences, each annotated with its measured OD 405 nm.
Number only, no unit.

sequence="DCAWHLGELAACT (disulfide 2-12 (inferred)) [peptide substituted with alanine at positions 10 and 11]" target_or_test_system=histone value_reported=0.729
sequence="PCARHLGELVWCT (disulfide 2-12 (inferred))" target_or_test_system=histone value_reported=0.444
sequence="DCARHLGELVWCT (disulfide 2-12 (inferred))" target_or_test_system=histone value_reported=0.363

Here's the next entry for you.
Noted OD 405 nm for RCARHLGELVWCT (disulfide 2-12 (inferred)) , tested on histone: 0.359

###

Some sequences, each annotated with its measured OD 405 nm.
system: C1q; test: Inhibition of C1q binding to immune complexes using additional peptides (Example 6); set-up: species or system human; conditions: PAP pre-incubated with peptide or human C1q one hour, C1q coated plates; positive control 2.355
Positions of bridges follow the written chain, without caps; N, C: chain ends. No end group written: not given here.

sequence="APPCAFHLGELVWCT (disulfide 4-14 (inferred))" value_reported=0.983
sequence="APPDCAWHLGELVWCT (Synthetically generated polypeptide)" value_reported=0.389
sequence="APPCAWHLGELVWCT (disulfide 4-14 (inferred))" value_reported=1.148

Here's the next entry for you.
Noted OD 405 nm for DCAFHLGELVWCT (disulfide 2-12 (inferred)) , tested on C1q: 0.859

###

test system: RF; experiment: Inhibition of RF binding to immune complexes using additional peptides (Example 5); settings: PAP pre-incubated with peptide one hour, RF coated plates; positive control 1.176
Positions of bridges follow the written chain, without caps; N, C: chain ends. No end group written: not given here.
ENDPOINT: OD 405 nm

sequence="APPCAFHLGELVWCT (disulfide 4-14 (inferred))" value_reported=0.226
sequence="DCAFHLGELVWCT (disulfide 2-12 (inferred))" value_reported=0.267
sequence="APPCAWHLGELVWCT (disulfide 4-14 (inferred))" value_reported=0.250

Value of measured OD 405 nm for the entry APPDCAWHLGELVWCT (Synthetically generated polypeptide) : 0.205

###

test system: human monomeric IgG; assay: Inhibition of rheumatoid factor binding to monomeric IgG (Example 4); details: peptides pre-incubated 30 minutes with monomeric IgG, then 200 I.U. RF; (+) control buffer only 1.376
Positions of bridges follow the written chain, without caps; N, C: chain ends. No end group written: not given here.
Some sequences, each annotated with its measured OD 405 nm.

The examples below pair each entry with its known result.
sequence="DCARHLGELVWCT (disulfide 2-12 (inferred))" endpoint="OD 405 nm" value_reported=1.231
sequence="RCARHLGELVWCT (disulfide 2-12 (inferred))" endpoint="OD 405 nm" value_reported=1.314
sequence="DCAAHLGELAACT (disulfide 2-12 (inferred))" endpoint="OD 405 nm" value_reported=1.421
sequence="PCARHLGELVWCT (disulfide 2-12 (inferred))" endpoint="OD 405 nm" value_reported=1.323

Here's the next entry for you.
Noted OD 405 nm for DCAWHLGELAACT (disulfide 2-12 (inferred)) [peptide substituted with alanine at positions 10 and 11] , tested on human monomeric IgG: 1.397

###

tested on: FcγIIa; experiment: Inhibition of FcR binding: reverse ELISA, PAP immune complexes on FcγIIa coated plates (Example 3); conditions: plates read at 450 nm, (+) control PAP with no peptide 3.600
Positions of bridges follow the written chain, without caps; N, C: chain ends. No end group written: not given here.
Some sequences, each annotated with its measured PAP immune complex binding (OD at 450 nm).
Number only, no unit.

The examples below pair each entry with its known result.
sequence="DCAWHLGELAACT (disulfide 2-12 (inferred)) [peptide substituted with alanine at positions 10 and 11]" value_reported=1.484
sequence="DCAAHLGELAACT (disulfide 2-12 (inferred))" value_reported=2.434
sequence="PCARHLGELVWCT (disulfide 2-12 (inferred))" value_reported=1.149

Noted PAP immune complex binding (OD at 450 nm) for RCARHLGELVWCT (disulfide 2-12 (inferred)) , tested on FcγIIa: 3.398

Noted PAP immune complex binding (OD at 450 nm) for DCARHLGELVWCT (disulfide 2-12 (inferred)) , tested on FcγIIa: 2.539
